Origin of values: patent US12612410B2

# target-of-assay: FLT3 ITD (Homo sapiens, UniProt P36888)
# Construct: fused on or other part: DNA tag for qPCR detection (T7 phage fusion or DNA-tagged protein from HEK-293 cells)
# Sequence (P36888 1-993): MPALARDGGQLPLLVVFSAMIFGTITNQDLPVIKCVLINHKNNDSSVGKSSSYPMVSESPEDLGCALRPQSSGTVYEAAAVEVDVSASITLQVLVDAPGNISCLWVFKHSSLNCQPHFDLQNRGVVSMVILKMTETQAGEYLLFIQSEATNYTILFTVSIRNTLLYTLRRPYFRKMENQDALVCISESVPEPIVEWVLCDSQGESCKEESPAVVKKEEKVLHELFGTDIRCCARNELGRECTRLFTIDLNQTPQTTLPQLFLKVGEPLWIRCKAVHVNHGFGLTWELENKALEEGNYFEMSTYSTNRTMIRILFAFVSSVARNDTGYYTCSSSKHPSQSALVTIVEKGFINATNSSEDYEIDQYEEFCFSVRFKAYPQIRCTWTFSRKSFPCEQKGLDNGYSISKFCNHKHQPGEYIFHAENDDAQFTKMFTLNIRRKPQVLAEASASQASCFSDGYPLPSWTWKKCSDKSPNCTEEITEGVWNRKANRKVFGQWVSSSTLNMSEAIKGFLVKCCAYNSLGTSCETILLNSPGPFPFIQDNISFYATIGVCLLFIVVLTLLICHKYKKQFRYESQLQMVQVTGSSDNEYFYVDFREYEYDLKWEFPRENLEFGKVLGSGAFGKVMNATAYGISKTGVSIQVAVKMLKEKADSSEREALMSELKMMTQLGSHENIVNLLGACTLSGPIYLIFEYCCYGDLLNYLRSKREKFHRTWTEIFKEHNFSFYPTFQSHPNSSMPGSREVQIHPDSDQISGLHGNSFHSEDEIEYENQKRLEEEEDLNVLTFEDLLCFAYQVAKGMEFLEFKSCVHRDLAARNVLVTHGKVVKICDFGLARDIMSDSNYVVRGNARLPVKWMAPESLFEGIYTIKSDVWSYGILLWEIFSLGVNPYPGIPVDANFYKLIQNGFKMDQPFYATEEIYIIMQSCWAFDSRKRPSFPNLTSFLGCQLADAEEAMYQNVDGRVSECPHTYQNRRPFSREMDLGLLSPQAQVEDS
# measurement-description: DiscoverX KINOMEscan competition binding, FLT3 ITD
Task for the reader: assign each of the following compounds its reported Kd.
Give just the numeric value; nM need not be written.

Enquiry: Can you share its Kd? I mean this compound: FC(F)(F)C1(c2cn3c(-c4cccc(N[C@@H]5CCNC5)n4)cnc3cn2)CC1
Return: 1.4

Enquiry: Can you share its Kd? I mean this compound: FC(F)c1cn2c(-c3cccc(N[C@H]4CNC[C@@H]4F)n3)cnc2cn1
Return: 0.14

Enquiry: Can you share its Kd? I mean this compound: CC(C)(O)c1cn2c(-c3cccc(N[C@H]4CNCC[C@@H]4F)n3)cnc2cn1
Return: 1.5

Enquiry: Can you share its Kd? I mean this compound: CC(C)(O)c1cn2c(-c3cccc(N[C@@H]4CCCNC4)n3)cnc2cn1
Return: 2.9

Enquiry: Can you share its Kd? I mean this compound: F[C@H]1CNC[C@@H]1Nc1cccc(-c2cnc3cnc(C4CC4)cn23)n1
Return: 0.091

Enquiry: Can you share its Kd? I mean this compound: FC(F)c1cn2c(-c3cccc(N[C@H]4CNCC[C@@H]4F)n3)cnc2cn1
Return: 0.34

Enquiry: Can you share its Kd? I mean this compound: CC1(c2cn3c(-c4cccc(N[C@@H]5CCNC5)n4)cnc3cn2)CC1
Return: 0.14

Enquiry: Can you share its Kd? I mean this compound: CC1(c2cn3c(-c4cccc(N[C@H]5CNCC56CC6)n4)cnc3cn2)CC1
Return: 0.11
